tested on: normolipidaemic rats; assay: Effects on serum lipids in vivo, rat Model B (semi-synthetic diet rich in sucrose and cholesterol); set-up: species or system Male Sprague-Dawley rats; conditions: compound at 0.1% of the diet (approximately 100 mg/kg/day), 7 days, * = significant at p<0.05
RECORDED ENDPOINT: Percentage difference from control values in Total Serum triglyceride

# count of solved cases: 2
{"MOLECULE": "O=C(O)C(Cc1ccccn1)NCc1ccc(Cl)cc1 (racemic)", "VALUE MEASURED": "+27%"}
{"MOLECULE": "O=C(O)[C@H](Cc1ccccc1)NCc1ccc(Cl)cc1", "VALUE MEASURED": "-44^* %"}

Look up Percentage difference from control values in Total Serum triglyceride with normolipidaemic rats for this molecule: O=C(O)[C@@H](Cc1ccccc1)NCc1ccc(Cl)cc1
-67^* %

Look up Percentage difference from control values in Total Serum triglyceride with normolipidaemic rats for this molecule: O=C(O)C(Cc1ccncc1)NCc1ccc(Cl)cc1 (racemic)
-10%

====

Tested on: normolipidaemic rats
Assay: Effects on serum lipids in vivo, rat Model B (semi-synthetic diet rich in sucrose and cholesterol)
Parameters: species or system Male Sprague-Dawley rats
Conditions: compound at 0.1% of the diet (approximately 100 mg/kg/day), 7 days, * = significant at p<0.05
Procedure: The compounds of the Examples above were tested for their effects on serum lipids in vivo using normolipidaemic rats. Male Sprague-Dawley rats, 80-100 g, were randomised into groups of 8 after 5-7 days of feeding on the diet. […] At the end of the experiment, i.e. after 7 days, the rats were killed and their individual total serum cholesterol and triglyceride measured in mg/100 ml using a Technicon Autoanalyser. […]
RECORDED ENDPOINT: Percentage difference from control values in Total Serum cholesterol

# count of solved cases: 3
{"MOLECULE": "O=C(O)[C@@H](Cc1ccccc1)NCc1ccc(Cl)cc1", "MEASURED ON": "normolipidaemic rats", "VALUE MEASURED": "+49^* %"}
{"MOLECULE": "O=C(O)C(Cc1ccccn1)NCc1ccc(Cl)cc1 (racemic)", "MEASURED ON": "normolipidaemic rats", "VALUE MEASURED": "+27^* %"}
{"MOLECULE": "O=C(O)C(Cc1ccncc1)NCc1ccc(Cl)cc1 (racemic)", "MEASURED ON": "normolipidaemic rats", "VALUE MEASURED": "-10%"}

Now turn to the next molecule.
Look up Percentage difference from control values in Total Serum cholesterol with normolipidaemic rats for this molecule: O=C(O)[C@H](Cc1ccccc1)NCc1ccc(Cl)cc1
+14%
